Measured On: Fibroblast growth factor receptor 1 (Homo sapiens, UniProt P11362)
Sequence (P11362 whole entry, the tested form may be a part): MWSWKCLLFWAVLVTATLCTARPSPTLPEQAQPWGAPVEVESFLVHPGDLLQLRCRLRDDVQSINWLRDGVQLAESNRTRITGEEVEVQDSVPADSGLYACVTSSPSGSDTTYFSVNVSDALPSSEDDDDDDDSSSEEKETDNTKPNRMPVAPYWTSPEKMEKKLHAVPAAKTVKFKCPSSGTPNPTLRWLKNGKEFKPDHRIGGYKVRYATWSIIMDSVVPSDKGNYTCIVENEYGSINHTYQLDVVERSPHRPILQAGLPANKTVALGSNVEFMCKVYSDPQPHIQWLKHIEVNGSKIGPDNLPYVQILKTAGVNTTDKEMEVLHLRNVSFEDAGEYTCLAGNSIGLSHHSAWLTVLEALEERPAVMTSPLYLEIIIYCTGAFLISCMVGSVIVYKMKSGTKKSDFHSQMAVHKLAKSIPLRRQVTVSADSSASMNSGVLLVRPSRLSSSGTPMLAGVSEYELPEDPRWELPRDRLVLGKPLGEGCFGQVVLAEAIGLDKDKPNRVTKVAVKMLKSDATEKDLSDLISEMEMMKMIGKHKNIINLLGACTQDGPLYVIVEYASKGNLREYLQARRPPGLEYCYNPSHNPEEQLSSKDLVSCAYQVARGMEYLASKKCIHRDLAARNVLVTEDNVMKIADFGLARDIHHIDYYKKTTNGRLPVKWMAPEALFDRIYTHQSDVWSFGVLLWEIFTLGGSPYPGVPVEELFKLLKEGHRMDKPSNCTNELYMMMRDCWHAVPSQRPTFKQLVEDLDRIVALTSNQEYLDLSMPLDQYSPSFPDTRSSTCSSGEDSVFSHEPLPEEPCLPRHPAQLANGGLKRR
Measured Quantity: IC50

*Q* Could you share which IC50 value was measured for COc1cc(OC)cc(-c2ccc3nc(Nc4nc(Cl)ccc4[N+](=O)[O-])ncc3c2)c1 ?
*A* > 5 µM

====

Measured On: Fibroblast growth factor receptor 3 (Homo sapiens)
Sequence (P22607 whole entry): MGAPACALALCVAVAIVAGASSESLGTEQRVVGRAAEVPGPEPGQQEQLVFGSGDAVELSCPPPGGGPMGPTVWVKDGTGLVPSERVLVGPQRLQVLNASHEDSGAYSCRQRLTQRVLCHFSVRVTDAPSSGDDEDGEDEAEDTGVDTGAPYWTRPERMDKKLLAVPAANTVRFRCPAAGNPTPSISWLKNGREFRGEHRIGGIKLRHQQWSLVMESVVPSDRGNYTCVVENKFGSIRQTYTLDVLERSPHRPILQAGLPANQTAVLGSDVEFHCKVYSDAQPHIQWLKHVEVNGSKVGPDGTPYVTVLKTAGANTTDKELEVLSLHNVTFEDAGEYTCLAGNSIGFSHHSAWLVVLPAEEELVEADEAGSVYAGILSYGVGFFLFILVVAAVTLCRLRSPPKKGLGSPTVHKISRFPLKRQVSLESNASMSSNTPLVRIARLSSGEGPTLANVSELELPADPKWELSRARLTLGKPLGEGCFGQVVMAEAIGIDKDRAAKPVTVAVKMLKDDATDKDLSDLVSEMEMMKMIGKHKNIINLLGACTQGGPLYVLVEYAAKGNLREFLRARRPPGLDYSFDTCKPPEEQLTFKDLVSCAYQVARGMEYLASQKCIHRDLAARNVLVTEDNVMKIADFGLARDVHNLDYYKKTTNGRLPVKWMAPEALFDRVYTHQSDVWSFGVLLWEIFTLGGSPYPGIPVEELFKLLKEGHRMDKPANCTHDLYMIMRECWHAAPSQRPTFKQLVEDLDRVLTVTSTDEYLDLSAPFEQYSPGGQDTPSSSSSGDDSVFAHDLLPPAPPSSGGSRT
pIC50: −log10 of the molar value.
Measured Quantity: pIC50

structure_smiles=COc1cc(OC)c(Cl)c(-c2ccc3nc(Nc4nc(Cl)ccc4[N+](=O)[O-])ncc3c2)c1Cl result="< 5.30"

*Q* Param item = COc1cc(OC)cc(-c2ccc3nc(Nc4nc(Cl)ccc4[N+](=O)[O-])ncc3c2)c1 ; retrieve measured pIC50.
*A* < 5.30

====

Measured On: Fibroblast growth factor receptor 1 (Homo sapiens, UniProt P11362)
Assay Details: Inhibition of full length nanoluc-fused FGFR1 transfected in HEK293T cells assessed as target engagement incubated for 3 hrs in presence of K10 tracer by Nano BRET assay
// reported pEC50 for each item listed
The value called pEC50 is obtained by taking minus log10 of the concentration in mol/L.

structure_smiles=COc1cc(OC)c(Cl)c(-c2ccc3nc(Nc4ncccc4[N+](=O)[O-])ncc3c2)c1Cl measured_on="Fibroblast growth factor receptor 1 (Homo sapiens, UniProt P11362)" quantitative_readout=6.06

*Q* Entry C=CC(=O)Nc1cccc(C)c1Nc1ncc2cc(-c3c(Cl)c(OC)cc(OC)c3Cl)ccc2n1 : reported pEC50 = ?
*A* 5.37
